experiment: chemical genetic growth profiling, strain panel (AID 1159580);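 note: tested at 20 µM; growth read once vehicle control cultures reached saturation at 30 °C; 1 = growth at the plate median or of vehicle wells; lower values mean less growth of the strain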; conditions: S. cerevisiae deletion strains, growth OD, locus YLR357W, strain rsc2
Hit rate of the full screen: of about 5,500 compounds, about 2,000 (36%) were called active. About 18% were inconclusive and are not listed. Cut-off read from the data, not from the text of the source: active = normalized growth mostly below about 0.91 (no sharp cut-off); inconclusive = no clear call, values can overlap the other calls; inactive = mostly above about 0.92. The list shows a part of the results.
Bench note: report the call from 1 (yes) (active), 0 (no) (inactive)

*Q* Recorded test call requested for O=C1C=CC(=O)c2c(O)cccc21
*A* 0 (no)

*Q* Recorded test call requested for Cc1cc(O)c2c(c1)C(=O)c1cccc(O)c1C2=O
*A* 0 (no)

*Q* Recorded test call requested for O=c1c(O)c(-c2ccccc2)oc2cccc(O)c12
*A* 1 (yes)

*Q* Recorded test call requested for O=C1C=CC(=O)c2c(O)c(Cl)c(Cl)c(O)c21
*A* 1 (yes)

*Q* Recorded test call requested for O=c1c(O)cccc2cc(O)c(O)c(O)c12
*A* 1 (yes)

*Q* Recorded test call requested for C=C[C@H]1CN2CC[C@H]1C[C@H]2[C@H](O)c1ccnc2ccccc12
*A* 0 (no)

This collection of values is drawn from PubChem BioAssay AID1159580.
